tested on: Micrococcus luteus; assay: Bactericidal activity against Micrococcus luteus MTCC 2470 after 24 hrs; type: functional; details: MTCC 2470, 24 h
Below, each entry is listed with its recorded MBC.
All answers are understood in µg/mL, so give the number only.

Identify the reported MBC for the following entry. CCCCCCCCC(CCCCCCCCC(=O)OC)SCC(=O)N[C@H](C(=O)OC)[C@@H](C)CC (stereo not given in full)
31.2

* * *

test system: Staphylococcus aureus; assay: Antibacterial activity against Staphylococcus aureus MTCC 96 after 24 hrs by well diffusion assay; type: functional; conditions: MTCC 96, 24 h
value-kind: MIC

Guide cases for MIC, answers given:
>  <molecule>
O=C(O)c1cn(C2CC2)c2cc(N3CCNCC3)c(F)cc2c1=O

>  <MIC>
0.9 µg/mL

$$$$
>  <molecule>
CCCCCCCCC(CCCCCCCCC(=O)OC)SCC(=O)N[C@@H](CC(C)C)C(=O)OC (some centres undefined)

>  <MIC>
> 125 µg/mL

$$$$

Give the observed MIC of CCCCCCCCC(CCCCCCCCC(=O)OC)SCC(=O)N[C@H](C(=O)OC)[C@@H](C)CC (some centres undefined) for Staphylococcus aureus.
31.2 µg/mL

Give the observed MIC of Clc1ccc(COC(Cn2ccnc2)c2ccc(Cl)cc2Cl)c(Cl)c1 (centres undefined) for Staphylococcus aureus.
> 125 µg/mL

Give the observed MIC of CCCCCCCCC(CCCCCCCCC(=O)OC)SCC(=O)N[C@H](C(=O)OC)c1c[nH]cn1 (some centres undefined) for Staphylococcus aureus.
> 125 µg/mL

Give the observed MIC of CCCCCCCCC(CCCCCCCCC(=O)OC)SCC(=O)N[C@H](C(=O)OC)c1c[nH]c2ccccc12 (some centres undefined) for Staphylococcus aureus.
> 125 µg/mL

Give the observed MIC of CCCCCCCCC(CCCCCCCCC(=O)OC)SCC(=O)N[C@@H](C)C(=O)OC (some centres undefined) for Staphylococcus aureus.
15.6 µg/mL

Give the observed MIC of CCCCCCCCC(CCCCCCCCC(=O)OC)SCC(=O)NCC(=O)OC (centres undefined) for Staphylococcus aureus.
> 125 µg/mL

Give the observed MIC of CCCCCCCCC(CCCCCCCCC(=O)OC)SCC(=O)N[C@@H](Cc1ccccc1)C(=O)OC (some centres undefined) for Staphylococcus aureus.
> 125 µg/mL

* * *

system: Staphylococcus aureus; assay: Antibiofilm activity against Staphylococcus aureus MLS-16 MTCC 2940 after 24 hrs by crystal violet staining based method; type: functional, organism-based; conditions: MLS-16 MTCC 2940, 24 h
value-kind: IC50 (µM)
All answers are understood in µM, so give the number only.

Give the observed IC50 of CCCCCCCCC(CCCCCCCCC(=O)OC)SCC(=O)N[C@@H](C)C(=O)OC (stereo partly specified) for Staphylococcus aureus.
3.2

* * *

tested on: Micrococcus luteus; test: Antibacterial activity against Micrococcus luteus MTCC 2470 after 24 hrs by well diffusion assay; format: functional; conditions: MTCC 2470, 24 h
value-kind: MIC (µg/mL)

Guide cases for MIC, answers given:
>  <compound>
CCCCCCCCC(CCCCCCCCC(=O)OC)SCC(=O)N[C@@H](C)C(=O)OC (some centres undefined)

>  <unit-info>
µg/mL

>  <MIC>
7.8

$$$$
>  <compound>
CCCCCCCCC(CCCCCCCCC(=O)OC)SCC(=O)N[C@H](C(=O)OC)c1c[nH]cn1 (some centres undefined)

>  <unit-info>
µg/mL

>  <MIC>
3.9

$$$$
>  <compound>
O=C(O)c1cn(C2CC2)c2cc(N3CCNCC3)c(F)cc2c1=O [CIPROFLOXACIN]

>  <unit-info>
µg/mL

>  <MIC>
0.9

$$$$

1. CCCCCCCCC(CCCCCCCCC(=O)OC)SCC(=O)N[C@H](C(=O)OC)[C@@H](C)CC (some centres undefined)
2. CCCCCCCCC(CCCCCCCCC(=O)OC)SCC(=O)NCC(=O)OC (centres undefined)
Of 1 and 2 , whose reported MIC is numerically smaller? Write down the label of the entry you select.
2
(2: 15.6 µg/mL, 1: 31.2 µg/mL)
